System: SN12C
Assay: AUC of dose-response viability curve, drug + dasatinib, normalised to DMSO (arbitrary (AUC of normalised viability)); higher = less growth inhibition
Details: treatment: drug + dasatinib (fixed dose, not stated); 5 days
Quick reference: AUC of dose-response viability curve of the listed items.
# respond with the number and nothing more

// solved cases for AUC of dose-response viability curve follow
[[record]]
compound = "CC(C)(C)Cn1c(N)nc2ccc(-c3[nH]c(C(C)(C)C)nc3-c3ccc(F)cc3)nc21.CS(=O)(=O)O.CS(=O)(=O)O + Cc1nc(Nc2ncc(C(=O)Nc3c(C)cccc3Cl)s2)cc(N2CCN(CCO)CC2)n1"
assay_metric = "AUC of dose-response viability curve"
experimental_value = 2.36

[[record]]
compound = "Cc1ccc([N+](=O)[O-])cc1S(=O)(=O)N(C)/N=C/c1cnc2ccc(Br)cn12.Cl [PIK-75] + Cc1nc(Nc2ncc(C(=O)Nc3c(C)cccc3Cl)s2)cc(N2CCN(CCO)CC2)n1"
assay_metric = "AUC of dose-response viability curve"
experimental_value = 1.07

[[record]]
compound = "CNC(=O)CN1CCC(Oc2cc3c(Nc4cccc(Cl)c4F)ncnc3cc2OC)CC1 [AZD8931] + Cc1nc(Nc2ncc(C(=O)Nc3c(C)cccc3Cl)s2)cc(N2CCN(CCO)CC2)n1"
assay_metric = "AUC of dose-response viability curve"
experimental_value = 2.3

[[record]]
compound = "CCc1cc2c(cc1N1CCC(N3CCOCC3)CC1)C(C)(C)c1[nH]c3cc(C#N)ccc3c1C2=O + Cc1nc(Nc2ncc(C(=O)Nc3c(C)cccc3Cl)s2)cc(N2CCN(CCO)CC2)n1"
assay_metric = "AUC of dose-response viability curve"
experimental_value = 2.45

[[record]]
compound = "FC(F)c1nc2ccccc2n1-c1nc(N2CCOCC2)nc(N2CCOCC2)n1 [ZSTK474] + Cc1nc(Nc2ncc(C(=O)Nc3c(C)cccc3Cl)s2)cc(N2CCN(CCO)CC2)n1"
assay_metric = "AUC of dose-response viability curve"
experimental_value = 1.99

[[record]]
compound = "O=C1NC(=O)/C(=C/c2ccc3nccc(-c4ccncc4)c3c2)S1 + Cc1nc(Nc2ncc(C(=O)Nc3c(C)cccc3Cl)s2)cc(N2CCN(CCO)CC2)n1"
assay_metric = "AUC of dose-response viability curve"
experimental_value = 1.76


(Q) Would you mind telling me what AUC of dose-response viability curve value was observed for Cc1[nH]c(/C=C2\C(=O)Nc3ccccc32)c(C)c1CCC(=O)O [TSU-68] + Cc1nc(Nc2ncc(C(=O)Nc3c(C)cccc3Cl)s2)cc(N2CCN(CCO)CC2)n1 ?
(A) 2.32

(Q) Using the record for NCC(=O)Nc1ccc(-n2nc(C(F)(F)F)cc2-c2ccc3c(ccc4ccccc43)c2)cc1 + Cc1nc(Nc2ncc(C(=O)Nc3c(C)cccc3Cl)s2)cc(N2CCN(CCO)CC2)n1 , report its AUC of dose-response viability curve.
(A) 2.31

(Q) Given COc1ccc2cc(-c3[nH]c(-c4ccc(S(C)=O)cc4)nc3-c3ccncc3)ccc2c1 (centres undefined) [Tie2 kinase inhibitor] + Cc1nc(Nc2ncc(C(=O)Nc3c(C)cccc3Cl)s2)cc(N2CCN(CCO)CC2)n1 , state its recorded AUC of dose-response viability curve.
(A) 2.4

---

Test system: ACHN
Assay: GI50 of drug in presence of dasatinib; higher = less potent
Conditions: treatment: drug + dasatinib (fixed dose, not stated); 5 days
Categorize each record by its GI50 of drug using zone 1: < 0.07 µM; zone 2: ≥ 0.07 µM and < 0.7 µM; zone 3: ≥ 0.7 µM

Use these answered entries as a reference point.
[[record]]
compound = "CCN1CCN(c2ccc(Nc3cc(N(C)C(=O)Nc4c(Cl)c(OC)cc(OC)c4Cl)ncn3)cc2)CC1 [BGJ398 (NVP-BGJ398)] + Cc1nc(Nc2ncc(C(=O)Nc3c(C)cccc3Cl)s2)cc(N2CCN(CCO)CC2)n1 [dasatinib]"
system_under_test = "ACHN"
assigned_category = "zone 1"

[[record]]
compound = "NC(=O)Nc1cc(-c2cccc(F)c2)sc1C(=O)N[C@H]1CCCNC1 [AZD7762] + Cc1nc(Nc2ncc(C(=O)Nc3c(C)cccc3Cl)s2)cc(N2CCN(CCO)CC2)n1 [dasatinib]"
system_under_test = "ACHN"
assigned_category = "zone 1"

[[record]]
compound = "CCn1cc(-c2ccnc3[nH]c(-c4cccc(CN(C)C)c4)cc23)c(-c2ccc(NC(=O)N(C)C)cc2)n1 + Cc1nc(Nc2ncc(C(=O)Nc3c(C)cccc3Cl)s2)cc(N2CCN(CCO)CC2)n1 [dasatinib]"
system_under_test = "ACHN"
assigned_category = "zone 2"

[[record]]
compound = "N#C/C(=C\\c1ccc(O)c(O)c1)C(=O)NCc1ccccc1 [AG-490] + Cc1nc(Nc2ncc(C(=O)Nc3c(C)cccc3Cl)s2)cc(N2CCN(CCO)CC2)n1 [dasatinib]"
system_under_test = "ACHN"
assigned_category = "zone 3"

[[record]]
compound = "NCC(=O)Nc1ccc(-n2nc(C(F)(F)F)cc2-c2ccc3c(ccc4ccccc43)c2)cc1 + Cc1nc(Nc2ncc(C(=O)Nc3c(C)cccc3Cl)s2)cc(N2CCN(CCO)CC2)n1 [dasatinib]"
system_under_test = "ACHN"
assigned_category = "zone 3"

[[record]]
compound = "CC(=O)Nc1ccc(NC(=S)NC(=O)c2ccc(C(C)(C)C)cc2)cc1 [Tenovin-1] + Cc1nc(Nc2ncc(C(=O)Nc3c(C)cccc3Cl)s2)cc(N2CCN(CCO)CC2)n1 [dasatinib]"
system_under_test = "ACHN"
assigned_category = "zone 3"


(Q) Band assignment needed for CCN(CC)CCNC(=O)c1c(C)[nH]c(/C=C2\C(=O)Nc3ccc(F)cc32)c1C.O=C(O)C[C@H](O)C(=O)O [Sunitinib Malate (Sutent)] + Cc1nc(Nc2ncc(C(=O)Nc3c(C)cccc3Cl)s2)cc(N2CCN(CCO)CC2)n1 [dasatinib] please.
(A) zone 2

(Q) Into which category would you place C=CC(=O)Nc1cccc(Oc2nc(Nc3ccc(N4CCN(C)CC4)cc3OC)ncc2Cl)c1 [WZ4002] + Cc1nc(Nc2ncc(C(=O)Nc3c(C)cccc3Cl)s2)cc(N2CCN(CCO)CC2)n1 [dasatinib] ?
(A) zone 2

(Q) Record Cc1ccc(C(=O)Nc2cccc(C(F)(F)F)c2)cc1Nc1nc(-c2cccnc2)nc2c1cnn2C [NVP-BHG712] + Cc1nc(Nc2ncc(C(=O)Nc3c(C)cccc3Cl)s2)cc(N2CCN(CCO)CC2)n1 [dasatinib] — which class?
(A) zone 2

---

System: A498
Assay: minimum viability across doses, drug alone, relative to DMSO (fraction); higher = less growth inhibition
Settings: treatment: drug alone; 5 days
Labelling: minimum viability across doses reported below 0.8 becomes true (1); at or above becomes false (0).

The examples below pair each entry with its known result.
[[record]]
molecule = "CCOc1cc2ncc(C#N)c(Nc3ccc(F)c(Cl)c3)c2cc1NC(=O)/C=C/CN(C)C [Pelitinib (EKB-569)]"
assigned_category = "true (1)"

[[record]]
molecule = "CN(C)Cc1cccc(N/C(=C2\\C(=O)Nc3cc(C(=O)N(C)C)ccc32)c2ccccc2)c1"
assigned_category = "false (0)"

[[record]]
molecule = "CN1CCN(c2ccc3nc(-c4c(N)c5c(F)cccc5[nH]c4=O)[nH]c3c2)CC1"
assigned_category = "true (1)"

[[record]]
molecule = "CNC(=O)c1ccccc1Nc1nc(Nc2ccc(N3CCOCC3)cc2OC)ncc1Cl"
assigned_category = "true (1)"


(Q) Field: below-cutoff. Rule: recorded minimum viability across doses strictly less than 0.8. Subject: Cc1[nH]c(/C=C2\C(=O)Nc3ccccc32)c(C)c1CCC(=O)O
(A) false (0)

(Q) Dear reviewer, please state whether Cc1cnc(NC(=O)Nc2cc(Br)c(C)cc2OC[C@@H]2CNCCO2)cn1 has minimum viability across doses strictly beneath 0.8.
(A) true (1)

(Q) Dear colleague, could you confirm whether minimum viability across doses of Cc1n[nH]c2ccc(-c3cncc(OC[C@@H](N)Cc4ccccc4)c3)cc12 falls below 0.8? Thanks.
(A) true (1)

(Q) I wonder whether Cn1cc(C2=C(c3ccc(Cl)cc3Cl)C(=O)NC2=O)c2ccccc21 has minimum viability across doses below 0.8. Can you tell?
(A) false (0)

(Q) Criterion: minimum viability across doses strictly below 0.8. Is it met by COc1ccc(-c2ccc3ncc4c(c3c2)n(-c2ccc(N3CCNCC3)c(C(F)(F)F)c2)c(=O)n4C)cn1.O=C(O)/C=C\C(=O)O ?
(A) true (1)

---

System: A498
Assay: AUC of dose-response viability curve, drug + dasatinib, normalised to DMSO (arbitrary (AUC of normalised viability)); higher = less growth inhibition
Conditions: treatment: drug + dasatinib (fixed dose, not stated); 5 days
The threshold is 3. Values of AUC of dose-response viability curve beneath it are tagged TRUE; values meeting or exceeding it are tagged FALSE.

Use the examples below as a reference point.
[[record]]
compound = "CCN(CC)CCCCNc1ncc2cc(-c3cc(OC)cc(OC)c3)c(NC(=O)NC(C)(C)C)nc2n1 + Cc1nc(Nc2ncc(C(=O)Nc3c(C)cccc3Cl)s2)cc(N2CCN(CCO)CC2)n1"
assigned_category = "TRUE"

[[record]]
compound = "Cc1cc2c(F)c(Oc3ncnn4cc(OC[C@@H](C)OC(=O)[C@H](C)N)c(C)c34)ccc2[nH]1 + Cc1nc(Nc2ncc(C(=O)Nc3c(C)cccc3Cl)s2)cc(N2CCN(CCO)CC2)n1"
assigned_category = "FALSE"

[[record]]
compound = "CN1CCN(CCOc2cc(OC3CCOCC3)c3c(Nc4c(Cl)ccc5c4OCO5)ncnc3c2)CC1 [Saracatinib (AZD0530)] + Cc1nc(Nc2ncc(C(=O)Nc3c(C)cccc3Cl)s2)cc(N2CCN(CCO)CC2)n1"
assigned_category = "FALSE"

[[record]]
compound = "O=C(NOCC(O)CO)c1cc(Br)c(F)c(F)c1Nc1ccc(I)cc1F (stereo not drawn) + Cc1nc(Nc2ncc(C(=O)Nc3c(C)cccc3Cl)s2)cc(N2CCN(CCO)CC2)n1"
assigned_category = "TRUE"


(Q) Take the compound C[C@@H]1CN(CC(=O)Nc2ccc3c(c2)Cc2cccc(-c4cc(=O)cc(N5CCOCC5)o4)c2S3)C[C@H](C)O1 + Cc1nc(Nc2ncc(C(=O)Nc3c(C)cccc3Cl)s2)cc(N2CCN(CCO)CC2)n1 and say whether its AUC of dose-response viability curve is less than 3.
(A) FALSE

(Q) Is AUC of dose-response viability curve of CN1CCN(c2nc(C3=C(c4c[nH]c5ccccc45)C(=O)NC3=O)c3ccccc3n2)CC1 [Sotrastaurin (AEB071)] + Cc1nc(Nc2ncc(C(=O)Nc3c(C)cccc3Cl)s2)cc(N2CCN(CCO)CC2)n1 strictly below 3?
(A) FALSE

(Q) is_below(AUC of dose-response viability curve, 3) for CC[C@H](Nc1ncnc2[nH]cnc12)c1nc2cccc(F)c2c(=O)n1-c1ccccc1 [CAL-101 (GS-1101)] + Cc1nc(Nc2ncc(C(=O)Nc3c(C)cccc3Cl)s2)cc(N2CCN(CCO)CC2)n1 ?
(A) FALSE

(Q) Threshold test, AUC of dose-response viability curve < 3: CN(C)Cc1cccc(N/C(=C2\C(=O)Nc3cc(C(=O)N(C)C)ccc32)c2ccccc2)c1 + Cc1nc(Nc2ncc(C(=O)Nc3c(C)cccc3Cl)s2)cc(N2CCN(CCO)CC2)n1
(A) FALSE

(Q) # strict comparison: is reported AUC of dose-response viability curve < 3? input = C[C@@H](Oc1cc(-c2cnn(C3CCNCC3)c2)cnc1N)c1c(Cl)ccc(F)c1Cl + Cc1nc(Nc2ncc(C(=O)Nc3c(C)cccc3Cl)s2)cc(N2CCN(CCO)CC2)n1
(A) TRUE

(Q) Does the reported AUC of dose-response viability curve of CC1(C)CNc2cc(NC(=O)c3cccnc3NCc3ccncc3)ccc21.O=P(O)(O)O.O=P(O)(O)O [Motesanib Diphosphate] + Cc1nc(Nc2ncc(C(=O)Nc3c(C)cccc3Cl)s2)cc(N2CCN(CCO)CC2)n1 stay below 3?
(A) FALSE

(Q) Hello, is AUC of dose-response viability curve of the following compound strictly smaller than 3? COc1cc(Nc2ncc(F)c(Nc3ccc4c(n3)NC(=O)C(C)(C)O4)n2)cc(OC)c1OC [R406(free base)] + Cc1nc(Nc2ncc(C(=O)Nc3c(C)cccc3Cl)s2)cc(N2CCN(CCO)CC2)n1
(A) FALSE

(Q) # strict comparison: is reported AUC of dose-response viability curve < 3? input = COc1cc2c(Oc3ccc4[nH]c(C)cc4c3F)ncnc2cc1OCCCN1CCCC1 [Cediranib (AZD2171)] + Cc1nc(Nc2ncc(C(=O)Nc3c(C)cccc3Cl)s2)cc(N2CCN(CCO)CC2)n1
(A) TRUE

(Q) Field: below-cutoff. Rule: recorded AUC of dose-response viability curve strictly less than 3. Subject: COc1cc2ncnc(Nc3cccc(Br)c3)c2cc1OC.Cl + Cc1nc(Nc2ncc(C(=O)Nc3c(C)cccc3Cl)s2)cc(N2CCN(CCO)CC2)n1
(A) FALSE
